Biological target: T1, human PD-L2 (full-length, on cells) (human, UniProt Q9BQ51 20-273)
T1 construct: whole, on cells; CHO-K1 cells stably expressing full-length human PD-L2; also endogenous on NCI-H226 and transfected in Jurkat cells; also called hPD-L2; CHO-K1/hPD-L2
T1 sequence (looked up): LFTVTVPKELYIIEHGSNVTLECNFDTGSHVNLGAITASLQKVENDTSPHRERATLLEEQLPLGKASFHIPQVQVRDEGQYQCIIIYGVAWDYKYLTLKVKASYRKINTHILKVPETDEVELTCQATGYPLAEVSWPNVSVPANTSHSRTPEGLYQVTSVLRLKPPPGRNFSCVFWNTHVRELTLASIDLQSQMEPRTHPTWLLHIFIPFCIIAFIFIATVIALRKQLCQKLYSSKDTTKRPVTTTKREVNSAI
Assay: hybridoma supernatant screen on cells expressing human PD-L2
propertyLabel: binding result

* 10A9-D2 (antibody, V domains shown, Both formats under this entry) VH: QVQLQESGPGLVKPSETLSLTCAVSGGSISSSYWWSWVRQPPGKGLEWVGEVFHVGVTNYNPSLKSRVTISVDKSKNQFSLKLTSVTAADTAVYYCARVTGTTGYYHGLDVWGQGTTVTVFS VL: DIQMTQSPSSLSASVGDRVTITCRASQGIRNDLGWYQQKPGKVPKRLIYAASSLQSGIPSRFSGSGSGTEFTLTISSLQPEDFATYYCLQHNNYPRTFGQGTKVEIK | binds
* 9A3-C7 (antibody, V domains shown, Both formats under this entry) VH: QVQLVESGGGLVKPGGSLRLSCAASGFSLSDYYMSWIRQAPGRGLEWVSYISSSGSTIYYVDSVKGRFTISRDNAKNSLYLQINSLRAEDTAVYHCARAQWLPDFDYWGQGTLVTVSS VL: QSALTQPPSASGSPGQSVTISCTGTSSDVGGYNYVSWYQHHPGKVPKLMIYEVSKRPSGVPDRFSGSKSGNTASLTVSGLQAEDEADYYCTSFADNNNVGFGGGTKLTVLG | binds
* 1A1-C2 (antibody, V domains shown) VH: QVQLQESGPGLVKPSGTLSLTCAVSGGSIGSSYWWTWIRQSPGKGLEWIGEIFHSGPTNYTPSLKSRVTISVDKSKNQFSLQLRSVTAADTAVYYCARTTGTTGFYYGMDVWGQGTTVTVSS VL: EVVLTQSPATLYVTPGERVTLSCRASQSVSSNLAWYQQKPGQAPRLLIYGASTRATGIPARFSGSGSGTEFTLTISSLQSEDFAVYYCQQFNNWPRTFGLGTKVEIT | binds
